B1: Chromodomain-helicase-DNA-binding protein 3, residues 374 to 426; numbered along this chain, Q12873 (parent)
chain: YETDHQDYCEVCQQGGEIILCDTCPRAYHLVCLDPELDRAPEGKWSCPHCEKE

- Variants of: B1
- ASSAY METHOD TEXT: abundance fitness (aPCA) (normalised: wild type 0, dead -1); higher = more abundant; growth selection in yeast, the domain comes from the species named
- MEASUREMENT CONTEXT: Homo sapiens
Note to self: class = bucket of abundance fitness, per low bracket = under -0.4, middle bracket = from -0.4 up to -0.09, high bracket = -0.09 and over

{"VARIANT IDENTIFIER": "C32N", "QUALITATIVE LABEL": "low bracket"}
{"VARIANT IDENTIFIER": "E17F", "QUALITATIVE LABEL": "middle bracket"}
{"VARIANT IDENTIFIER": "R39I", "QUALITATIVE LABEL": "high bracket"}
{"VARIANT IDENTIFIER": "L20S", "QUALITATIVE LABEL": "high bracket"}
{"VARIANT IDENTIFIER": "C32M", "QUALITATIVE LABEL": "low bracket"}
{"VARIANT IDENTIFIER": "C12H", "QUALITATIVE LABEL": "low bracket"}
{"VARIANT IDENTIFIER": "I18N", "QUALITATIVE LABEL": "middle bracket"}
{"VARIANT IDENTIFIER": "E17L", "QUALITATIVE LABEL": "middle bracket"}
{"VARIANT IDENTIFIER": "C12G", "QUALITATIVE LABEL": "low bracket"}
{"VARIANT IDENTIFIER": "V31S", "QUALITATIVE LABEL": "high bracket"}
{"VARIANT IDENTIFIER": "P25H", "QUALITATIVE LABEL": "middle bracket"}
{"VARIANT IDENTIFIER": "Q6G", "QUALITATIVE LABEL": "middle bracket"}
{"VARIANT IDENTIFIER": "G16Y", "QUALITATIVE LABEL": "high bracket"}
